Reported IC50 is given for each of the following compounds.
# system: ITK (Homo sapiens, UniProt Q08881)
# Sequence (Q08881 whole entry): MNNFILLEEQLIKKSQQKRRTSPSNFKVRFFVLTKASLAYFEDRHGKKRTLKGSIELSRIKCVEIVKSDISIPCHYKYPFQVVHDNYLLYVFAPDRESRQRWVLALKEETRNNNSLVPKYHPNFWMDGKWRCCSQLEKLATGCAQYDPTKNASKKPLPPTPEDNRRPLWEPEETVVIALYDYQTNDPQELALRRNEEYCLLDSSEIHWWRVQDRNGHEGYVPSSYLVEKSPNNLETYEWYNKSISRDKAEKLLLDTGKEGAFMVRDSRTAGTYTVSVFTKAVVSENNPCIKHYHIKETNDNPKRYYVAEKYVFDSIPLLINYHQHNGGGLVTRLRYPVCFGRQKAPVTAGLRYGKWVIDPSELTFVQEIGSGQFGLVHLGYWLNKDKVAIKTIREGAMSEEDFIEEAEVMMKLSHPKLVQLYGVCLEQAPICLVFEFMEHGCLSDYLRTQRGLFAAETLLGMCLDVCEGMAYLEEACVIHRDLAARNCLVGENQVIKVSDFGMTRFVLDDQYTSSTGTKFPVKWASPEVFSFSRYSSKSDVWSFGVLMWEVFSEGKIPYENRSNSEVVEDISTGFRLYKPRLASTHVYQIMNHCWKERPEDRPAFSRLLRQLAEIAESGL
# method-description: Inhibition of a panel of kinases, in vitro HotSpot kinase assay: ITK
# Assay type: biochemical
# experimental-conditions: D-compounds panel data; 1 μM ATP

Some compounds with known IC50 results, for comparison:
C[C@@H]1[C@H](NC(=O)N(C)C)CCCN1c1cnc(C(N)=O)c(Nc2ccc(N3CCN(C)CC3)cc2)n1 [Example D-111]: 0.1 to 1 µM
C[C@@H]1[C@H](NC(=O)c2ccc(C3CC3)cc2)CCCN1c1cnc(C(N)=O)c(Nc2ccc(N3CCC(C(C)(C)O)CC3)cc2)n1 [Example D-100]: 0.1 to 1 µM

State its IC50 on ITK (Homo sapiens, UniProt Q08881): Cn1cc(Nc2nc(N3C[C@@H](NC(=O)c4ccc(C5CC5)cc4)CC(F)(F)C3)cnc2C(N)=O)cn1 [Example D-189]
> 10 µM

###

Reported pIC50 is given for each of the following molecules.
# system: ITK (Homo sapiens, UniProt Q08881)
# method-description: Inhibition of a panel of kinases, in vitro HotSpot kinase assay: ITK
# Format: biochemical
# experimental-conditions: Table 15, C compounds; 1 μM ATP
pIC50: −log10 of the molar value.

Some molecules with known pIC50 results, for comparison:
C=CC(=O)N1CCC[C@H](Nc2cnc(C(N)=O)c(Nc3ccc(-c4ncccn4)cc3)n2)C1 [Example C-36]: 6.00 to 7.00
C=CC(=O)N1CC[C@@H](N(C)c2nnc(C(N)=O)c(Nc3ccc(C(C)C)cc3)n2)C1 [Example C-41]: ≥ 8.00
C=CC(=O)N1CCC[C@@H](Nc2nnc(C(N)=O)c(Nc3ccc(C4CCN(C(=O)CC)CC4)cc3)n2)C1 [Example C-57]: ≥ 8.00
C=CC(=O)N1CCC[C@@H](Nc2nnc(C(N)=O)c(Nc3cc(C)ns3)n2)C1 [Example C-56]: ≥ 8.00
C=CC(=O)N1CCC[C@@H](Nc2nnc(C(N)=O)c(Nc3ccc(C(C)(C)C#N)cc3)n2)C1 [Example C-61]: ≥ 8.00
C=CC(=O)N1CCC[C@@H](Nc2nnc(C(N)=O)c(Nc3ccc(-c4ncco4)cc3)n2)C1 [Example C-51]: 7.00 to 8.00
C=CC(=O)N1CCC[C@H](Nc2nnc(C(N)=O)c(Nc3ccc(C(C)(C)C)cc3)n2)C1 [Example C-39]: 7.00 to 8.00
C=CC(=O)N1CCC[C@@H](Nc2nnc(C(N)=O)c(Nc3cnc4ccccc4c3)n2)C1 [Example C-70]: 7.00 to 8.00
C=CC(=O)N1CCC[C@@H](Nc2nnc(C(N)=O)c(Nc3ccc(CN[C@@H](C)C(C)(C)C)cc3)n2)C1 [Example C-73]: ≥ 8.00
C=CC(=O)N1CCC[C@@H](Nc2nnc(C(N)=O)c(Nc3cccc(C)c3)n2)C1 [Example C-55]: 7.00 to 8.00

Given the entry CN(c1cnc(C(N)=O)c(Nc2ccc(C3(C)CCN(C4CC4)CC3)cc2)n1)[C@@H]1CCN(C(=O)C(F)(F)F)C1 [Example C-66] , report its measured pIC50.
≥ 8.00

Given the entry C=CC(=O)N1CCC[C@@H](Nc2nnc(C(N)=O)c(Nc3ccc4c(c3)CCC(=O)N4C)n2)C1 [Example C-87] , report its measured pIC50.
≥ 8.00

Given the entry C=CC(=O)N1CCC[C@@H](Nc2nnc(C(N)=O)c(Nc3ccc(S(C)(=O)=O)cc3)n2)C1 [Example C-59] , report its measured pIC50.
≥ 8.00

Given the entry C=CC(=O)N1CCC[C@H](Nc2cnc(C(N)=O)c(Nc3ccc(C(C)C)cc3)n2)C1 [Example C-37] , report its measured pIC50.
6.00 to 7.00

Given the entry C=CC(=O)N1CC[C@@H](N(C)c2cnc(C(N)=O)c(Nc3ccc(C4CCN(C5CCCC5)CC4)cc3)n2)C1 [Example C-85] , report its measured pIC50.
≥ 8.00
